assay: Pharmacokinetic analysis in ICR mice; type: in vivo, mouse; conditions: male, mouse, plasma; ICR mice, 25 mg/kg oral, blood collection 0.083–4 h; read-out: C max
METRIC NAME: Cmax

- COMPOUND: "Cc1ccccc1CN1C(=O)C2=C(CCN(Cc3ccccc3)C2)N2CCN=C12 [ONC201, reference compound]"
  ASSAY VALUE: "500 nM"

* * *

In this section we review reported EC50 values for a set of compounds.
target: purified recombinant human ClpP (Homo sapiens); assay: In vitro ClpP activity assay (casein‐FITC degradation); type: biochemical; conditions: relative to DMSO, read-out: EC50 (nM) ClpP activation
Sequence (Q16740 57-277): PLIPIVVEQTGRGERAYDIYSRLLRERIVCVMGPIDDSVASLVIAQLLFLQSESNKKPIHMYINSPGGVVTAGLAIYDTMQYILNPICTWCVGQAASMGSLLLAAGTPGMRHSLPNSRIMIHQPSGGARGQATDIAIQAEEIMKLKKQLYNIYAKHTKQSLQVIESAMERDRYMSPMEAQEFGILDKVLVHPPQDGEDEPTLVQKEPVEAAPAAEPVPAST

- COMPOUND: "O=C1C2=C(CCN(Cc3ccccc3)C2)N2CCN=C2N1Cc1ccc(F)cc1F [ONC206, reference compound]"
  EC50, nM: 830
- COMPOUND: "O=C1C2=C(CCN(Cc3ccccc3)C2)N2CCN=C2N1Cc1ccc(C(F)(F)F)cc1 [ONC212/TR‐31, reference compound]"
  EC50, nM: 310
- COMPOUND: "Cc1nc2c(c(=O)n1Cc1ccc(Cl)cc1)CN(Cc1cccc(C#N)c1)CC2"
  EC50, nM: 340
- COMPOUND: "N#Cc1cccc(CC2CCC3=C(C2)C(=O)N(Cc2ccc(Cl)cc2)C2=NCCN23)c1 (centres unmarked)"
  EC50, nM: 1100
- COMPOUND: "N#Cc1cccc(CN2CCC3=C(C2)C(=O)N(Cc2ccc(Cl)cc2)C2=NCC(F)(F)CN23)c1"
  EC50, nM: 1100
- COMPOUND: "N#Cc1cccc(CN2CCC3=C(C2)C(=O)N(Cc2ccc(C(F)(F)F)cc2)C2=NCCCN23)c1"
  EC50, nM: 310
- COMPOUND: "N#Cc1cccc(CC2CCC3=C(C2)C(=O)N(Cc2ccc(C(F)(F)F)cc2)C2=NCCN23)c1 (centres unmarked)"
  EC50, nM: 670
- COMPOUND: "N#Cc1cccc(CN2CCc3ncn(Cc4ccc(Cl)cc4)c(=O)c3C2)c1"
  EC50, nM: 140
